# methodNotes: soluble fraction after stress (log2 fold change); higher = more stays soluble; pooled small domains, quantitative proteomics;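 also: 20 min heating vs room temperature control held 20 min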
# recordedConditions: stress: 75 degC
Exercise: for every item that follows, state its recorded soluble fraction (log2).
Keep it simple and answer with nothing but the number.

// returns reported soluble fraction (log2) for input HMHHIDYKQLRRINPVAARRAVLDYLESTGGNITKTAQVFSINRSVVYDILKKQASGDLSDRLRIP
-2.04

Look up soluble fraction (log2): HMTSVFQNSDGTWGHLTKTVNPLIYTIEYGRRTGFSSREEAEESYQRSLTSYQDQLSKLKKERD
0.297

Look up soluble fraction (log2) for this sequence: HMVAMYLRVGISNGRRYLSIVQGYRDQVTKKVRHNTVKSLGYLDDLEKHYPDPIAHFKAVVEEMNKKQALE
-2.04

Fill in the blank: the reported soluble fraction (log2) of HMNDTNEEAVLSIILKNPQATQGAIAKEVGASLSTVKRIMRNLQKSGKLRREGTNRNGSWVVTGQK is ____.
-0.289

Value lookup for soluble fraction (log2); key = HMDPDARQDAEVWLLDFLSAGPRTAQEIFTAARVEGHTRVTVKRAKATAGIQSVKQDFDGPWVWVLPGSG
-0.455

Given the entry HMETDGGDLTPRERDVLSLIGRGLRNAEAASALGLSEHTIAGHIKSVYSKLGISTRAEAALLASRLGL , report its measured soluble fraction (log2).
-0.499

Entry HMAEKNALWEEDAVYAADSSALARDGYDAIVRTDKGGKKGYLVVGTGGRERFMPLQTLVMLGYLKK has what soluble fraction (log2)?
-0.433

Report soluble fraction (log2) for HMEKYIVNQEEQGKRLDIYVVNKSSELTRTAVQRLIEQEHILVNGRKQKASYKVLEGDIITIERV please.
0.753

Report soluble fraction (log2) for HMDFLKSVDLSKYSKVESLILSHLSKGDFDIDDFIRSFSLGTDEVTRAIVSLEIEGIILRKGNRIFRKKS please.
-1.38

Form field: reported soluble fraction (log2) of HMKESFAQLFSLLTPTEQKVAALISQGFSNKDIAAKMFISLSTVKTHTNHIFAKMGVANRNALVAKVNN
-1.46

Requested field: soluble fraction (log2). Item: HMSASEKLFEARKNLNIVNVLGKNPVDRYDIVKILKHGDHYHIYDSKGNEGITYTNPKSLYPEAEFGEYQG
-0.0642

GET /values?readout=soluble fraction (log2)&item= HMGNIADARRDASYVFLIGEWAKSSNLTEKKLAGLIQSNHLDIKYGITVTDVIADIRKYKNDPTYNPF
-2.19

Name the reported soluble fraction (log2) value associated with the sequence HMTPAKQVSAKAERWIDQLGSSDWEKREEAAAELKKLGGAAKSALEKALKNADPEVASKAEELLEALES
0.19

Suppose we examine the sequence HMDNIEIGNRIREIRIKKNISVFELAYRTKTSQSHIYQIEGGSQNMSIELLFKIADTLETDPNTILGV ; what soluble fraction (log2) value has been reported?
-3.97

// returns reported soluble fraction (log2) for input HMAEANTEADFVAIGVRAELLPILQKLGVHTIEQLKGIKATKLFNDIPGMRKKLKLDAVQNPTLQEIEGWL
-0.146

Find the recorded soluble fraction (log2) belonging to HMAGAPANLAARLREQILQGAYHDGQRLPAERHLAAEHGVSRGTVREALRLLEQGALLTRKRGSGSYVTYP and report it.
-0.516

I'd like to know its soluble fraction (log2). The sequence in question is HMREPDPELTASIKSMAESNDQSERLVALAQLSEQRAVDPEVADQILLIALLDEDPIIRGQAVYA
0.274

----------
# methodNotes: soluble fraction after stress (log2 fold change); higher = more stays soluble; pooled small domains, quantitative proteomics
# recordedConditions: stress: 75 degC
Assign soluble fraction (log2) to each entry below.

For HMKFLYQKAREEIISLIQDGEIKPSEKIMPERELSELLGYNRMTIKKAINSLVAEGVLMKKRGAGTFLLG , what is its reported soluble fraction (log2)?
-0.292

Given the sequence HMSKEIQNILASLPSVDVLLKQIDPIYPHGKAKEATQQVVARLRESVVDGTRKTVIDQKEVIAMIHKQLEE , what is its reported soluble fraction (log2)?
-0.293

Given HMTTTSGLIKTIQTGRRKLGMDDETYRALLADVSGGKTSSKDLNAYQLKEVLRRMREAGFRS , state its recorded soluble fraction (log2).
0.58

Returns the measured soluble fraction (log2) for the input sequence. Input: HMNIEIIEVQEESTPSEISKIISTESTKIIEDLLNLGVMASLETPLKNQDIEKLLEGYGYIVDIKP
0.0251

----------
# methodNotes: soluble fraction after stress (log2 fold change); higher = more stays soluble; pooled small domains, quantitative proteomics
# recordedConditions: stress: 75 degC
parameterMeasured: soluble fraction (log2)
Response field accepts a number only; no unit should be typed.

Could you tell me which soluble fraction (log2) is on file for HMLINFPNKLKRLRLANNLTQQELANILETTKQAVSSYESGKSTPSLNSLIKLSEHFNISLDSLVFD ?
-0.038

Which soluble fraction (log2) is listed for HMNDIVKIYTTHRIINIEGLAKNEPIMLYTINGTLIDKSVSSNGSAQLHVKGIGVYLVKWANNIVKVIVPN ?
-4.81

# query: soluble fraction (log2) of entry HMVANLPFNYKVYAKKGKLYVVISYKDSNGKYKKKWIRTGLDEGTKKKEVNTVADQIAAEYYSSMRLE
-3.52

Any idea what soluble fraction (log2) was measured for HMKISIPQEYFEIYNVLKQRPMHINEISKILKKPVSEISGTISLMEIEGYITKLTTDQYVLKKI ?
-0.473

Entry HMEDPRVTEIKNLQQDLAKKFKPTQGPASASDAVERVTAITTVMTKVAALPEDLRSEAMQPGKKM : reported soluble fraction (log2) = ?
-0.327

Give the measured soluble fraction (log2) of HMLKLEDIKKDAQVKGIVDGQIVRIVTVEPIGDHALTVYYKDHQGQFAERMLFRSDELNLELATA .
-0.244

What value of soluble fraction (log2) has been reported for the following sequence? HMIGIGSDVPNKLKPAIYSFGLVAVGEKSVIPDGVQIGKNTAVSGVTSKEDYPDGVLESGETLIKA
0.186

Any idea what its soluble fraction (log2) is? The sequence is HMQVTEVDYGTFMKMVEEKNVGEVEVGNSMIVFTDKDGKAIYKTGAMNDPNLTERLYNAGASFTKE
0.144

# input sequence: HMGASIQITVNNTPVMLKNKTHYTLVDVLDFYPFDLSKMGGTELYTAINGVKSGFTDPVHANDSIEIYWI ; wanted: its soluble fraction (log2)
-2.49

# input sequence: HMNPETLTNGSVVKMSKANLSDELIIDMINNSPARFDLSSGALRSLEGEGVSKAVIESMKRATSG ; wanted: its soluble fraction (log2)
0.283

// lookup soluble fraction (log2) for HMDIRVAHVDDDMSFGEAFAQARSQVGPGGVFEWHGKLYGTYTAEEWASMSPAERSQYQQAVFN
-0.133

Form field: reported soluble fraction (log2) of HMINIFKVKKAMEEIFASEWEDSPYTDQKISQILWSRGFSVSTGLVEKYRGQMGVPDANSRLNLN
-2.49

# get_value(readout='soluble fraction (log2)', item= HMGFVTVTEVDTTADLKLARVYVSVLGPEEQWAKSFTALESARGFVWNWLRKHLDLRVTPQLAF )
-1.08

Name the reported soluble fraction (log2) value associated with the sequence HMTGYVMIRVDGLSLEKFLNMAAEAGVRVSDVRRASYTVLYAVVSPRDLKKLQSVAPEKYTVTVR
-1.18

# query: soluble fraction (log2) of entry HMGAQRDFELQLIDVIRQNPGLTYKAYGEKLSVSQATVKRLVAKLKETGSIRREGSQRKGTWIITDD
-1.49

// query soluble fraction (log2) value for entry HMIPESVQGIEEFLATGALKGIGKKTAAAIVHKFGKDTLRIMEEEPERLAEVSGIGEKKAAAIGEAFALH
0.134

Quick check: soluble fraction (log2) of HMAAGELSGEALIALIERHPMALSALATTFGHSESDLRAFVEPLARQGRLRLFESQGTLFVGGIG ?
-0.5

If you can, please state the reported soluble fraction (log2) value of HMDQESFGYFHVKYADVKQVADLVQKLNIPAVTWADERTRRLVALGSPATLQRISQVLNMVDL .
-0.781

Fill in: soluble fraction (log2) of HMSTANIVVPDVKGKTFEEAKKAIEAEGLTAKAEGDESGVVQKTSPSYGVSVESGSEVTLTLVKSDD is ___
0.494

Quick one: soluble fraction (log2) of HMSNWYGTVVKIQPRPNAQAADTAVVKLLDGSEHRFPVWADHLTTIEVGSRLKKLSGGWDPVLMDPEETF ?
-0.669

For the sequence shown here, HMKNTADRVYENLFHMLVSGDYAPGDRIPSEHELKERFNVSRNTIRAALNRMNALGIIETRQGDGTYLKG , give the reported soluble fraction (log2).
-0.472

So what's the measured soluble fraction (log2) for this one? HMNINVRNTGIKAVENNIINLSSDQRTFTWASNDRKLITVPFDENPYSALAAWFKTDEGIEVYQTIEKKL
-0.0488

Query (sequence): HMNVNALIGQEGIVIKEINSGSNKIGQVKISGDTWSAVTTNDFTNAIPVGSNVKILKIDGVNLIVEPVY ; field requested: soluble fraction (log2)
-0.255

Which soluble fraction (log2) is reported for this sequence? HMSILEIFGRNVQKYRKEQRLSQEKLAEYAGLHRTYIGMIERAEKNITLVNIEKIAKALNINLTKLLE
-4.25

// query soluble fraction (log2) value for entry HMSVFMIIVLKQHAPQEFVDMLMSSIKAKGVQIDVSKGARKTILGLVGNTSVIDREQIAGYEYVDKVIRV
-1.94

Any idea what soluble fraction (log2) was measured for HMYYSERILTILEERGISPYRVSKETGISQSVFSNWKRKPTSRITAANLERLADYLGLPVEVLTG ?
-3.48

# lookup: soluble fraction (log2) of HMQENFYMILESEERRVLDVLVADQPESVATFLKLVSPFPNYKIILEHINEKALDFYEETVI
-0.35

Entry under review: HMPLDKDTTLDEIYRRFNMEHPADYKGHSLSMGDIVVFRQDGKQTAYYVDEGADYRQVPEFFVK . Reported soluble fraction (log2)?
-0.0344

Using the record for HMEISLEAKMAEVREQVRGLAGINFRTLLEMQASRSNIIVTFLAILELMKIGAIQIRQEEIFGEIIIDSRD , report its soluble fraction (log2).
-0.104

Recorded soluble fraction (log2) of HMSVAPISYSQFESYLEQGKVASVAVGQDTIAGRFTAPVDGKSQFVTTIVNPQILDRIDKSGVEITGV , please.
0.144

For the sequence shown here, HMRKNVAGITPNVYGMGLKDAVYLLENAGYRVKVNGRGNVVRQSINSGTRIIKGQLIILDLD , give the reported soluble fraction (log2).
-3.62

Entry HMVYFDDEELDRFAGRAADSYTSDETDEFRDVMLTLLPADVMPWTQSIEMRGILLPEQLRDELLML : reported soluble fraction (log2) = ?
-0.391

Fill blank: measured soluble fraction (log2) of the sequence HMENIIKISASYEGLRVDQFLSNYLKISRSKVQKYISEEKIFLNNVPTKTNRKVKLDDIISYNLNF is ____.
-3.01
